PROPERTY_NAME: melting point

>>> endpoint_result("COc1ccc(-c2nnc(C)n2-c2ccccc2)cc1")
"140 to 141 °C"
>>> endpoint_result("Cn1nccc1OCc1c(S(C)(=O)=O)ccc(C(=O)C2C(=O)CC(C)(C)CC2=O)c1Cl")
"82 °C"
>>> endpoint_result("C=C(Cn1ccnc1)c1ccccc1O")
"139 to 141 °C"
>>> endpoint_result("CCCN(C(=S)n1ccnc1)c1ccccc1Cl")
"59 to 61 °C"
>>> endpoint_result("c1cc(Nc2nccc3ccccc23)cc(-n2ccnc2)c1")
"164 to 167 °C"
>>> endpoint_result("CCn1c2c(c3ccccc31)C(=O)NCC2")
"203 to 204 °C"
>>> endpoint_result("Cc1ccc(C(C)(C)C)c(O)c1-c1nc2cc(S(=O)(=O)C(F)(F)F)ccc2[nH]1")
"218 to 220 °C"
>>> endpoint_result("COC(=O)C(I)C(O)c1ccccc1 (stereo unspecified)")
"56 °C"

For the compound CCc1sc2ncnc(N)c2c1-c1ccc(NC(=O)c2ccccc2)cc1 , report melting point.
213 to 214 °C

For the compound COC(=O)C1Cc2c([nH]c3ccccc23)CN1C(=S)Sc1cccs1 (stereo unspecified) , report melting point.
150 to 152 °C

For the compound COC(=O)c1ccc(OC)c(Oc2ccccc2)c1 , report melting point.
61 to 63 °C

----------
The following compounds are shown together with reported melting point values.
Lab book: enter the figure in °C, no units written.

>>> endpoint_result("CNC(=O)c1cccc(NC(=O)Cc2cccc(C)c2)c1")
131

For the compound CN(C)C=C(C(=O)c1ccccc1)C(=O)c1ccccc1 , report melting point.
120

----------
The following molecules are shown together with reported melting point values.

Illustrative cases are given below, each with its answer.
>>> endpoint_result("COC(=O)c1cccc(C(=O)N(C)C)n1")
"90 to 92 °C"
>>> endpoint_result("CCNC(=O)c1ccc(N2CCN(Cc3ccc4c(c3)NC(=O)C(C)O4)CC2)cc1 (stereo not given)")
"250 to 256 °C"
>>> endpoint_result("CC(=O)OC(C)c1ccccc1CS(N)(=O)=O (stereo not given)")
"135 to 140 °C"
>>> endpoint_result("COc1cc2c(cc1OC)C(CNC=O)c1ccccc1CC2 (stereo not given)")
"118 to 119 °C"
>>> endpoint_result("Fc1cccnc1N1CCC2(CC1)COOC2")
"45 to 47 °C"

For the molecule Cc1ccc(NC2=C(C(=O)Nc3ccccc3)C(=O)OC2)cc1 , report melting point.
181 to 183 °C

For the molecule CC(SC1COC(C2([N+](=O)[O-])C=CC(C(=O)Nc3ccccc3)=CC2)OC1)C(O)(Cn1cncn1)c1ccc(F)cc1F (stereo not given) , report melting point.
189 °C

For the molecule O=C1N(CC2OC(O)C(O)C(O)C2O)c2ccccc2C12COc1cc3c(cc12)OCCO3 (stereo not given) , report melting point.
122 to 126 °C

For the molecule O=C(NC(Cc1ccccc1)C(=O)O)c1cc2cc(Cl)ccc2[nH]1 (stereo not given) , report melting point.
248 to 255 °C

For the molecule FC(F)(F)c1ccc2nc3c(nc2c1)-c1cccc2cccc-3c12 , report melting point.
185 to 186 °C

For the molecule COC(=O)c1nc(Br)c(F)c(NC(C)=O)c1Cl , report melting point.
190 to 192 °C

For the molecule Cc1oc(-c2ccccc2)nc1COc1ccc(COc2ccc(CCC(=O)O)cc2)cc1 , report melting point.
177 to 178 °C

For the molecule Cc1cc(C#CC2CC2)cc(C)c1Oc1ccc(N)c(Nc2ccc(C#N)cc2)n1 , report melting point.
82 to 85 °C

For the molecule O=C(c1ccc(F)c(Cl)c1)c1ccc(F)c(Cl)c1 , report melting point.
93 °C
